Assay: protease stability score; higher = more stable; yeast display proteolysis, trypsin and chymotrypsin;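 further: relative to predicted unfolded state with 0 unfolded-like and 1 meaning tenfold more protease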
Hi there, I'd appreciate the recorded protease stability score for every entry that follows.
Number only, no unit.

Q: What does the data say about its protease stability score? Entry: `SEDDELAHLFFELFLKLIQTGDEDKLLDLMDPNAKSEYNGVILHGREHKEHWRRRFKNIRVHYRHVEIHFQGNYLHIRIDGSLDINGQEIDSHVRLHTEKVNGKWIVRSMHFHYT`
A: 1.25

Q: Next up: `SEEEEIYKEYAELMIHIIKTGDEDALRLLLDPNTQTFINGRNIHGMDEHIRHWRHFFKKFKNMRIEITRLEIQGDKVRIHMRIEQGDKILHLLFIIVIINGRNEEIEVRIHTQ`
A: 1.69

Q: Next up: `SEEDEFNREMRREIIEAWETGDFRIIEKLLDPNAKVVVGDYIDHGRHAIEVWLKRYDVRRRRDYKHVEVYDGVIRSDVRMDGEINGQRKITSVHIIFVIINGRIHQVEIHIH`
A: 1.25

Q: Next up: `DEEERHVRELLQRLINALDTGDWKTIHELFDPHARMEINGQHYHGRETINDKLKEMRVSVHDWEQKHIDTFEGHAVVHTHVHIVYIVNGVKHINDTREMIVFTKINGRWVIESRHVK`
A: 0.563

Q: Next up: `DEWTEDVREALHLIKHSIETGDPRLIEELADPNVRVLYGNKVYHGREKLSDLVTEWRTTHVDFHHVRVIGDKIDIDVIIRSEYNGRVVDLKEKIVATKINGKWILHSRNIH`
A: 0.531

Q: Next up: `HEEEREAHEMLRIIVHAIRTGDEELLMRYLDPDVRMILLVDGVEVHRIGREEASKLISELWHHIRLKDLKVREIDNQGEYSHVRTERDGEVNGKKNTLETELDIIVIDGRVTDVTIRIR`
A: 1.1

Q: Next up: `DEDHEEFHRLVHEIFEYWRTGDEESLSELADPHVRYLYGDKIWIGREDMMTFLREIRIDRVHIEDMRVHKIGNKAEIRSDTRMDLHFNGKRLETKTEVKIVLHKVNGRWVIKSIEYRIE`
A: 2.13

Q: Next up: `SERDRIAKELKDILRSSRETGDERMMEELADPNVRFEINGVTIIGREEFYRWMSEWRLELEHSNDHDEREFDGQVNVDGTLVMRFTVNGQERREKVRITIHFLKVDGRWILHRIIIH`
A: 2.03

Q: Next up: `HEIHELLKRVVDMLRTLWETGDEETWNSLADPNTKFVIGDKEVVGMEEITRIFLHERERADHMKFEVRRIRTVGDKADSHGHLRLDIGNKHVTHEIDLHVRVINGRIKQVELRIH`
A: 1.33

Q: Next up: `SEEEEILRHIVELLLHILITGNEHALRTLLDPNARVDINGVTIHGREQESHIILEEVERIDHMDLKIEHLHVQGDKVHTKVERTIHIGEKEIRIEEEINLVIFNGRLRVSILHVH`
A: 0.97

Q: Next up: `DELERRAEEVFRQWLHYWLTGDFESMERLADPNVRIVINGVELIGMEHVAREIVHRIRHWRVRIQIDRIDNQGDKVHSEGKLIIHQGEKNIHHDITIHFDVVNGKIKHLEIRIQ`
A: 2.24

Q: Next up: `DEEEELLTRTSELFSHNLHTGDEDSLIHLADPHTRIDVDGVQLHGMETWSEQFSRDMHEHGARSEVHYKRREVVGDKAKIHLVLTITYNGRTIIRNIELRMTKIDGVWILRHISYH`
A: 1.26

Q: Next up: `DEEKETAHEIHRILIKAWITGDEDTLNELLDPNVRIDINGVDTHGMEELKRVFEEHKKEIRWKDVRPRHIHVINGQIHSDTDHNGVVNGVTRTRKAHWIIVVIDGKVHSIKFIIH`
A: 1.29
